Tested on: myeloid leukemia patient primary cells Pat.10
experiment description: cell viability (% survival relative to DMSO control); higher = less cytotoxic
experimental context: 10000 nM; 72 h
observed property: cell viability (%)
Just the number please, in %, no unit attached.

query_smiles=C[C@]12O[C@H](C[C@]1(O)CO)n1c3ccccc3c3c4c(c5c6ccccc6n2c5c31)CNC4=O system_name="myeloid leukemia patient primary cells Pat.10" observed_property="cell viability" reading_unit=% test_result=9.05
query_smiles=COc1c(C)c2c(c(O)c1C/C=C(\C)CCC(=O)O)C(=O)OC2 system_name="myeloid leukemia patient primary cells Pat.10" observed_property="cell viability" reading_unit=% test_result=53.1

We next turn to a different compound, shown below.
Query string: Bench note: what cell viability did CCOC(=O)N1c2ccc(C(F)(F)F)cc2[C@@H](N(Cc2cc(C(F)(F)F)cc(C(F)(F)F)c2)C(=O)OC)C[C@H]1CC show?
Result string: 38.2

====

Test system: myeloid leukemia patient primary cells Pat.4
experiment description: cell viability (% survival relative to DMSO control); higher = less cytotoxic
experimental context: 10000 nM; 72 h
Quick rule for you: cell viability under 7% gets met, anything else gets not met.

molecule="CC12CCC(O)CC1CCC1C2CCC2(C)C(C3=CC(=O)OC3)CCC12O (stereo not given)" class_assignment=met
molecule=COc1c(C)c2c(c(O)c1C/C=C(\C)CCC(=O)O)C(=O)OC2 class_assignment="not met"
molecule=Sc1ncnc2nc[nH]c12 class_assignment="not met"
molecule=Nc1ccn([C@@H]2O[C@H](CO)[C@@H](O)[C@@H]2O)c(=O)n1 class_assignment=met

Query string: I'd appreciate it if you could check whether Cc1noc2c1-c1ccccc1C(c1ccc(Cl)cc1)=N[C@H]2CC(N)=O has cell viability smaller than 7%.
Result string: not met

====

Test system: Mono-Mac-6
experiment description: cell viability (% survival relative to DMSO control, bortezomib = 0%); higher = less cytotoxic
experimental context: 10000 nM; 72 h
observed property: cell viability (%)
Just the number please, in %, no unit attached.

Below, each entry is followed by its recorded cell viability result.
molecule="O=C(COc1ccc(C(=O)c2ccccc2)cc1)NC1CCN(Cc2ccccc2)CC1 [AdipoRon]" system_name=Mono-Mac-6 test_result=90.7
molecule="COc1c(C)c2c(c(O)c1C/C=C(\\C)CCC(=O)O)C(=O)OC2 [Mycophenolic acid]" system_name=Mono-Mac-6 test_result=16.4
molecule="O=C(O)CC[C@H](NC(=O)c1ccc([N+](=O)[O-])cc1)C(=O)O [(S)-2-(4-Nitrobenzamido)pentanedioic acid]" system_name=Mono-Mac-6 test_result=98
molecule="Cl.OC[C@H]1NC[C@@H](O)[C@@H](O)[C@@H]1O [1-Deoxymannojirimycin hydrochloride]" system_name=Mono-Mac-6 test_result=96.2
molecule="O=C(O)C(Cl)Cl [Dichloroacetate]" system_name=Mono-Mac-6 test_result=102

Query string: Bench note: what cell viability did CN(C)c1nc(O)c2[nH]cnc2n1 [2-Dimethylamino-6-hydroxypurine] show?
Result string: 113

Query string: Same again, this time with O=C(O)CCc1ccc(NCc2cccc(Oc3ccccc3)c2)cc1 [GW9508]
Result string: 104

Query string: Same again, this time with CC(C(=O)O)C(=O)O [Methylmalonate]
Result string: 90.3

Query string: Same again, this time with Nc1ccn([C@@H]2O[C@H](CO)[C@@H](O)[C@@H]2O)c(=O)n1 [Cytarabine]
Result string: 3.49
